# Tested on: phospho-akt (Thr308) in PC-3 cells
# test name: Inhibition of phospho-akt (Thr308) in PC-3 cells, MSD phospho-akt 308 ELISA kit
# Type: cell-based
# condition info: Homo sapiens; inhibition of P308 Akt in PC-3 cells using MSD, 2 hours, no serum; read-out: EC50
pEC50: −log10 of the molar value.
value kind: pEC50

| smiles | value kind | endpoint result |
| --- | --- | --- |
| O=C(NCc1ccc(F)c(F)c1)c1cccnc1NCc1ccc(-c2cnc3[nH]ncc3c2)nc1 | pEC50 | 5.00 to 6.00 |
| C[C@H](NC(=O)c1nc(C#N)cnc1NCc1ccc(-c2cn(CCCN)c3ncnc(N)c23)cc1)c1ccc(F)c(F)c1 | pEC50 | > 6.00 |
| Nc1n[nH]c2ncc(-c3ccc(CNc4ncc(C(F)(F)F)cc4C(=O)NCc4ccc(F)c(Cl)c4)cc3)cc12 | pEC50 | > 6.00 |
| Nc1ncnc2[nH]cc(-c3ccc(CNc4ncc(C(F)(F)F)cc4C(=O)NCc4ccc(F)c(F)c4)cc3)c12 | pEC50 | > 6.00 |
| Nc1n[nH]c2ncc(-c3ccc(CNc4ncc(C(F)(F)F)cc4C(=O)Nc4ccc(C(F)(F)F)cc4)cc3)cc12 | pEC50 | > 6.00 |
| C[C@H](NC(=O)c1cc(C#N)cnc1NCc1ccc(-c2c[nH]nc2N)cc1)c1ccc(F)cc1 | pEC50 | 5.00 to 6.00 |
| Nc1ccc(-c2ccc(CNc3ncccc3C(=O)Nc3ccc(F)cc3)cc2)cn1 | pEC50 | 5.00 to 6.00 |
| COc1cc(F)ccc1NC(=O)c1cc(C(F)(F)F)cnc1NCc1ccc(-c2cnc3[nH]nc(N)c3c2)cc1 | pEC50 | 5.00 to 6.00 |
| Cc1cc(-c2ccc(CNc3ncc(C(F)(F)F)cc3C(=O)NCc3ccc(F)c(F)c3)cc2)cnc1N | pEC50 | 5.00 to 6.00 |
| Nc1n[nH]c2ncc(-c3ccc(CNc4ncc(C(F)(F)F)cc4-c4nc5cc(F)ccc5[nH]4)cc3)cc12 | pEC50 | < 5.00 |
| C[C@H](NC(=O)c1nc(C#N)cnc1N[C@H](C)c1ccc(-c2cn(C)c3ncnc(N)c23)cc1)c1ccc(F)c(F)c1 | pEC50 | > 6.00 |
| C[C@H](NC(=O)c1cc(C#N)cnc1NCc1ccc(-c2cnc(N)c(N)c2)cc1)c1ccc(F)cc1 | pEC50 | 5.00 to 6.00 |
| Nc1n[nH]c2ncc(-c3ccc(CNc4ncc(C(F)(F)F)cc4C(=O)Nc4ccc(Cl)cc4)cc3)cc12 | pEC50 | > 6.00 |
| CNC(=O)C[C@@H](Nc1ncc(C#N)cc1C(=O)N[C@@H](C)c1ccc(F)cc1)c1ccc(-c2c[nH]c3ncnc(N)c23)cc1 | pEC50 | < 5.00 |
| N#Cc1ccc(NC(=O)c2nc(C#N)cnc2NCc2ccc(-c3cnc4[nH]nc(N)c4c3)cc2)cc1 | pEC50 | > 6.00 |
| C[C@H](NC(=O)c1cc(C#N)cnc1NCc1ccc(-c2cnc(NCCCN(C)C)cn2)cc1)c1ccc(F)cc1 | pEC50 | < 5.00 |
| C[C@@H](Nc1ncc(C(F)(F)F)cc1C(=O)Nc1ccc(F)cc1)c1ccc(-c2c[nH]c3ncnc(N)c23)cc1 | pEC50 | 5.00 to 6.00 |
| COC(=O)c1cc(-c2ccc(CNc3ncc(C#N)cc3C(=O)N[C@@H](C)c3ccc(F)cc3)cc2)cnc1N | pEC50 | 5.00 to 6.00 |
| Cn1cc(-c2ccc(CNc3ncc(C(F)(F)F)cc3C(=O)Nc3ccc(F)cc3)cn2)c2c(N)ncnc21 | pEC50 | > 6.00 |
| C[C@H](NC(=O)c1cc(C#N)cnc1NCc1ccc(-c2cnc(N)c(-c3cccc(N)c3)n2)cc1)c1ccc(F)cc1 | pEC50 | > 6.00 |
| C[C@H](NC(=O)c1cccnc1NCc1ccc(-c2ccc3ncnc(NC4CC4)c3c2)s1)c1ccc(F)c(F)c1 | pEC50 | 5.00 to 6.00 |
| N#Cc1cccc(NC(=O)c2cc(C(F)(F)F)cnc2NCc2ccc(-c3cnc4[nH]nc(N)c4c3)cc2)c1 | pEC50 | 5.00 to 6.00 |
| C[C@H](NC(=O)c1cc(C#N)cnc1NCc1ccc(-c2cnc(Nc3ccn(C)n3)nc2)cc1)c1ccc(F)cc1 | pEC50 | 5.00 to 6.00 |
| C[C@H](NC(=O)c1cc(C#N)cnc1NCc1ccc(-c2cnc(N)c(F)c2)cc1)c1ccc(F)cc1 | pEC50 | > 6.00 |
| C[C@H](NC(=O)c1cc(C#N)cnc1N[C@H](C)c1ccc(-c2cnc3[nH]nc(N)c3n2)cc1)c1ccc(F)cc1 | pEC50 | > 6.00 |
| C[C@H](NC(=O)c1nc(C#N)cnc1NCc1ccc(-c2cnc(N)c(CO)n2)cc1)c1ccc(F)c(F)c1 | pEC50 | > 6.00 |
| C[C@H](NC(=O)c1cc(C#N)cnc1N[C@H](C)c1ccc(-c2c[nH]c3ncnc(N)c23)cc1)c1ccc(F)cc1 | pEC50 | > 6.00 |
| C[C@H](NC(=O)c1cccnc1Nc1ccc(-c2ccc3ncnc(N)c3c2)s1)c1ccc(F)c(F)c1 | pEC50 | < 5.00 |

----------
# Test system: phospho-akt (Thr308) in PC-3 cells
# test name: Inhibition of phospho-akt (Thr308) in PC-3 cells, MSD phospho-akt 308 ELISA kit
# Format: cell-based
# condition info: Homo sapiens; inhibition of P308 Akt in PC-3 cells using MSD, 2 hours, no serum; read-out: EC50
pEC50: −log10 of the molar value.

| compound | pEC50 |
| --- | --- |
| Cn1cc(-c2ccc(CNc3ncc(C(F)(F)F)cc3C(=O)Nc3ccc(F)cc3)cc2)c2c(N)ncnc21 | > 6.00 |
| C[C@H](NC(=O)c1cc(C#N)cnc1NCc1ccc(-c2cnc(NCCN(C)C)cn2)cc1)c1ccc(F)cc1 | < 5.00 |
| Nc1ccc(-c2ccc(CNc3ncc(C(F)(F)F)cc3C(=O)NCc3ccc(F)c(F)c3)cc2)cn1 | 5.00 to 6.00 |
| C[C@H](NC(=O)c1cc(C#N)cnc1NCc1ccc(-c2cnc3[nH]nc(N)c3c2)cc1Cl)c1ccc(F)cc1 | 5.00 to 6.00 |
| Cn1c(-c2ccc(CNc3ncc(C(F)(F)F)cc3C(=O)Nc3ccc(F)cc3)cc2)cc2c(N)ncnc21 | 5.00 to 6.00 |
| Nc1ncnc2c1c(-c1ccc(CNc3ncc(C(F)(F)F)cc3C(=O)NCc3ccc(F)c(F)c3)cc1)cn2CCCO | > 6.00 |
| O=C(NCc1ccc(F)c(F)c1)c1cccnc1NCc1ccc(-c2cnc3[nH]ccc3c2)nc1 | < 5.00 |
| C[C@H](NC(=O)c1cc(C#N)cnc1NCc1ccc(-c2cnc(N)nc2)cc1)c1ccc(F)cc1 | < 5.00 |
| C[C@H](NC(=O)c1cc(C#N)cnc1N[C@H](C)c1ccc(-c2cnc3[nH]nc(N)c3c2)cc1)c1ccc(F)cc1 | > 6.00 |
| N#CCc1n[nH]c2ncc(-c3ccc(CNc4ncc(C(F)(F)F)cc4C(=O)Nc4ccc(F)cc4)cc3)cc12 | > 6.00 |
| Nc1ncc(-c2ccc(CNc3ncc(C(F)(F)F)cc3C(=O)Nc3ccc(F)cc3)cc2)nc1CC1CCNC1 (stereo not shown) | > 6.00 |
| C[C@@H](NC(=O)c1cc(C(F)(F)F)cnc1NCc1ccc(-c2cnc3[nH]nc(N)c3c2)cc1)c1ccc(Br)cc1 | < 5.00 |
| C[C@H](NC(=O)c1cc(C#N)cnc1NCc1ccc(-c2cnc3[nH]nc(N)c3c2)cc1)c1ccc(F)cc1 | > 6.00 |
| C[C@H](NC(=O)c1cc(C#N)cnc1NCc1ccc(-c2ccc3n[nH]c(=O)n3c2)cc1)c1ccc(F)cc1 | < 5.00 |
| C[C@H](NC(=O)c1nc(C#N)cnc1N[C@H](C)c1ccc(-c2cnc3[nH]nc(N)c3c2)cc1)c1ccc(F)c(F)c1 | > 6.00 |
| CC(C)(N)CCc1nc(-c2ccc(CNc3ncc(C(F)(F)F)cc3C(=O)Nc3ccc(F)cc3)cc2)cnc1N | > 6.00 |
| Nc1ncnn2c(-c3ccc(CNc4ncc(C(F)(F)F)cc4C(=O)NCc4ccc(F)c(F)c4)cc3)ccc12 | 5.00 to 6.00 |
| Nc1ncnc2c1c(-c1ccc(CNc3ncc(C(F)(F)F)cc3C(=O)Nc3ccc(F)cc3)cc1)cn2CCCCO | 5.00 to 6.00 |
| C[C@H](NC(=O)c1cc(C#N)cnc1NCc1ccc(-c2cnc(N)c(CCC(C)(C)N)n2)cc1)c1ccc(F)cc1 | > 6.00 |
| Nc1ncc(-c2ccc(CNc3ncc(C(F)(F)F)cc3C(=O)Nc3ccc(F)cc3)cc2)nc1NCC(O)CO (stereo not shown) | > 6.00 |
| CC(N)CCc1nc(-c2ccc(CNc3ncc(C#N)nc3C(=O)N[C@@H](C)c3ccc(F)c(F)c3)cc2)cnc1N (stereo partly shown) | > 6.00 |
| C[C@H](NC(=O)c1cc(C#N)cnc1NCc1ccc(-c2cnc(N)c(C(=O)NCCN3CCOCC3)n2)cc1)c1ccc(F)cc1 | > 6.00 |
| Nc1ncnc2[nH]cc(-c3ccc(CNc4ncc(C(F)(F)F)cc4C(=O)Nc4ccc(F)cc4)cc3)c12 | > 6.00 |
| C[C@H](NC(=O)c1cc(C#N)cnc1N[C@H](C)c1ccc(-c2cn(C)c3ncnc(N)c23)cc1)c1ccc(F)cc1 | > 6.00 |
| C[C@H](NC(=O)c1nccnc1NCc1ccc(-c2cnc3[nH]ncc3c2)cc1)c1ccc(F)cc1 | 5.00 to 6.00 |
| CNC(=O)c1cc(-c2ccc(CNc3ncc(C#N)cc3C(=O)N[C@@H](C)c3ccc(F)cc3)cc2)cnc1N | > 6.00 |
| Nc1n[nH]c2ncc(-c3ccc(CNc4ncc(C(F)(F)F)cc4C(=O)Nc4ccc(F)cc4F)cc3)cc12 | > 6.00 |
| NCCCc1nc(-c2ccc(CNc3ncc(C(F)(F)F)cc3C(=O)NCc3ccc(F)c(F)c3)cc2)cnc1N | 5.00 to 6.00 |
